Listed here are compounds together with their documented log10 O2 permeability.
measurement_type: log10 O2 permeability (log10 of the value in Barrer)

{"compound": "*/C(C)=C(/*)[Si](C)(C)C(C)C (repeat unit)", "reported_measurement": 2.66}
{"compound": "*c1c(C)c(C)c(N2C(=O)c3ccc(Oc4cc(C(C)(C)C)cc(C)c4Oc4ccc5c(c4)C(=O)N(*)C5=O)cc3C2=O)c(C)c1C (repeat unit)", "reported_measurement": 1.11}
{"compound": "*CCO* (repeat unit)", "reported_measurement": 0.64}
{"compound": "*Oc1ccc(-c2ccc(Oc3c(F)c(F)c(COC(C4CCCC(C(OCc5c(F)c(F)c(*)c(F)c5F)(C(F)(F)F)C(F)(F)F)C4)(C(F)(F)F)C(F)(F)F)c(F)c3F)cc2)cc1 (repeat unit)", "reported_measurement": 0.40}
{"compound": "*Oc1ccc(C(C)(C)c2cccc(C(C)(C)c3ccc(Oc4ccc(S(=O)(=O)c5ccc(*)cc5)cc4)cc3)c2)cc1 (repeat unit)", "reported_measurement": -0.16}
{"compound": "*c1ccc(Cc2ccc(N3C(=O)c4ccc(Oc5ccc6c(c5)C(=O)N(*)C6=O)cc4C3=O)cc2)cc1 (repeat unit)", "reported_measurement": -0.58}
{"compound": "*C(=C(*)c1ccc(C[Si](C)(C)C)cc1)c1ccccc1 (repeat unit)", "reported_measurement": 2.15}
{"compound": "*Cc1ccc(C*)c(C#N)c1 (repeat unit)", "reported_measurement": -1.04}
{"compound": "*Oc1cc2c(cc1O*)C(=O)N(c1c(C)c(C)c(-n3c(=O)c4cc5oc6cc7c(cc6oc5cc4c3=O)C3(C(C)C)c4ccccc4C7(C(C)C)c4cc(*)c(*)cc43)c(C)c1C)C2=O (repeat unit)", "reported_measurement": 2.73}
{"compound": "*C(C)=C(*)CCCCCC (repeat unit)", "reported_measurement": 1.78}
{"compound": "*c1ccc2c(c1)-c1nc3ccc(-c4ccc5c(c4)nc4n5C(=O)c5cc(C(c6ccc7c(c6)C(=O)N(c6cc(C(c8ccc(O)c(N9C(=O)c%10ccc(C(*)(C(F)(F)F)C(F)(F)F)cc%10C9=O)c8)(C(F)(F)F)C(F)(F)F)ccc6O)C7=O)(C(F)(F)F)C(F)(F)F)ccc5-4)cc3n1C2=O (repeat unit)", "reported_measurement": 0.51}

* * *

Listed here are compounds together with their documented O2 permeability.
measurement_type: O2 permeability (Barrer)

{"compound": "*c1ccc(Cc2ccc(N3C(=O)c4ccc(-c5ccc6c(c5)C(=O)N(*)C6=O)cc4C3=O)c(Cl)c2)cc1Cl (repeat unit)", "measurement_type": "O2 permeability", "reported_measurement": 0.26}
{"compound": "*C(Cl)CCCC(*)S(=O)(=O)Cl (repeat unit)", "measurement_type": "O2 permeability", "reported_measurement": 3.29}
{"compound": "*C(=C(*)c1ccccc1)c1ccccc1 (repeat unit)", "measurement_type": "O2 permeability", "reported_measurement": 3600}
{"compound": "*c1cccc(-c2cc(C)c(-c3cccc(*)c3C)cc2C)c1C (repeat unit)", "measurement_type": "O2 permeability", "reported_measurement": 32}
{"compound": "*Oc1ccc(C(C)(C)c2ccc(Oc3ccc(S(=O)(=O)c4ccc(*)cc4)cc3)cc2)cc1 (repeat unit)", "measurement_type": "O2 permeability", "reported_measurement": 1.4}
{"compound": "*OC(=O)c1cccc(C(=O)Oc2c(C)cc(C(C)(C)c3cc(C)c(O*)c(C)c3)cc2C)c1 (repeat unit)", "measurement_type": "O2 permeability", "reported_measurement": 3.5}
{"compound": "*c1cccc(Oc2ccc(C(c3ccc(Oc4cccc(N5C(=O)c6ccc(C(c7ccc8c(c7)C(=O)N(*)C8=O)(C(F)(F)F)C(F)(F)F)cc6C5=O)c4)cc3)(C(F)(F)F)C(F)(F)F)cc2)c1 (repeat unit)", "measurement_type": "O2 permeability", "reported_measurement": 1.35}
{"compound": "*C(=C(*)c1ccc2c(c1)C(C)(C)CC2(C)C)c1cc(F)cc(F)c1 (repeat unit)", "measurement_type": "O2 permeability", "reported_measurement": 15200}
{"compound": "*C(=C(*)c1ccc2c(c1)C(C)(C)CC2(C)C)c1ccc(F)cc1 (repeat unit)", "measurement_type": "O2 permeability", "reported_measurement": 17900}
{"compound": "*CC(*)(C)C(=O)OC (repeat unit)", "measurement_type": "O2 permeability", "reported_measurement": 0.0885}
{"compound": "*Oc1ccc(-c2c(-c3ccc(C#N)cc3)c(-c3ccc(C#N)cc3)c(-c3ccc4c(c3)Oc3c(C#N)c(*)c(*)c(C#N)c3O4)c(-c3ccc(C#N)cc3)c2-c2ccc(C#N)cc2)cc1O* (repeat unit)", "measurement_type": "O2 permeability", "reported_measurement": 205}
{"compound": "*C(=C(*)c1ccc2c(c1)C(C)(C)CCC2(C)C)c1ccccc1 (repeat unit)", "measurement_type": "O2 permeability", "reported_measurement": 3900}
{"compound": "*c1ccc(Oc2ccc(-c3ccc(-c4ccc(Oc5ccc(N6C(=O)c7ccc(C(c8ccc9c(c8)C(=O)N(*)C9=O)(C(F)(F)F)C(F)(F)F)cc7C6=O)cc5)c(C(F)(F)F)c4)s3)cc2C(F)(F)F)cc1 (repeat unit)", "measurement_type": "O2 permeability", "reported_measurement": 11.7}
{"compound": "*c1c(C)cc(C)c(N2C(=O)c3ccc(S(=O)(=O)c4ccc5c(c4)C(=O)N(*)C5=O)cc3C2=O)c1C (repeat unit)", "measurement_type": "O2 permeability", "reported_measurement": 5.69}
{"compound": "*c1ccc(N2C(=O)c3ccc(C(=O)Oc4ccc(C(c5ccc(OC(=O)c6ccc7c(c6)C(=O)N(*)C7=O)cc5)(C(F)(F)F)C(F)(F)F)cc4)cc3C2=O)cc1 (repeat unit)", "measurement_type": "O2 permeability", "reported_measurement": 0.251}
{"compound": "*CC(*)Cl (repeat unit)", "measurement_type": "O2 permeability", "reported_measurement": 0.0453}
{"compound": "*Oc1c(C)cc(*)cc1C (repeat unit)", "measurement_type": "O2 permeability", "reported_measurement": 14.6}
